Entries and their measured melting point follow.

Exam item: Can you share its melting point? I mean this compound: NS(=O)(=O)c1cc2c(cc1Cl)NCN(CC1CO1)S2(=O)=O (stereo not shown)
Marked response: 192 to 197 °C

Exam item: Fill in the blank: the reported melting point of NS(=O)(=O)c1cc2c(cc1Cl)NCN(CCCCCCO)S2(=O)=O is ____.
Marked response: 176 to 179 °C

Exam item: Which value of melting point has been reported for NS(=O)(=O)c1cc2c(cc1Cl)NC(CCCCCCO[N+](=O)[O-])NS2(=O)=O (stereo not shown) [Example 47c] in the records?
Marked response: 161 °C

Exam item: Any idea what its melting point is? The compound is NS(=O)(=O)c1cc2c(cc1Cl)NCN(CCCCOc1cc(CO[N+](=O)[O-])cc(CO[N+](=O)[O-])c1)S2(=O)=O [Example 69b]
Marked response: 65 to 67 °C

Exam item: Fill in: melting point of CC(C)(CO[N+](=O)[O-])C(=O)N1CCC2(CC1)Nc1cc(C(F)(F)F)c(S(N)(=O)=O)cc1S(=O)(=O)N2 [Example 19b] is ___
Marked response: 152 to 156 °C (dec.)

Exam item: Sample NS(=O)(=O)c1cc2c(cc1Cl)NC(CCCCCO[N+](=O)[O-])=NS2(=O)=O [Example 20c] — what was its melting point?
Marked response: 170 to 172 °C

Exam item: Give its melting point value. Item: NS(=O)(=O)c1cc2c(cc1Cl)NC(CCCC(=O)NC[C@H](CO[N+](=O)[O-])O[N+](=O)[O-])=NS2(=O)=O
Marked response: > 220 °C

These entries and their values trace back to patent US7595313B2.
